system: LOX IMVI melanoma; experiment: NCI-60 one-dose screen, 48 h (100 = growth as untreated, 0 = no growth, -100 = all killed); details: 10 µM
About 83,000 compounds went through this panel and 20% of them were active in at least one assay; those are over-represented in the sample as a whole.
MEASURED_ENDPOINT: growth (%)
Give the number; % is assumed, so skip it.

Inquiry: Answer with reported growth of Brc1ccc(-c2cn3ccnc3c(-c3ccc(Br)cc3)n2)cc1
Reply text: 43.2

Inquiry: Please give the documented growth of Cc1ccccc1[P+](Cc1ccccc1)(c1ccccc1)c1ccccc1
Reply text: 22.4

Inquiry: Assign growth to the following record: O=C(Cn1ccc(=O)[nH]c1=O)c1ccc([N+](=O)[O-])o1
Reply text: 80

Inquiry: Consider the compound CCN1CCN(c2ccc(Nc3ncnc4c3nnn4CCc3cc(OC)cc(OC)c3)cc2)CC1 and give its recorded growth.
Reply text: 88.1

Inquiry: Supply recorded growth for COc1cc(/C=C2\C(=O)Nc3cc(C)c(O)cc32)cc(OC)c1OC here.
Reply text: 45.7

Inquiry: Specify measured growth for Cc1nc2cc(-n3c(-c4ccc(F)cc4)nc4ccccc4c3=O)ccc2n1Cc1ccccc1 .
Reply text: 6.97

Inquiry: Return growth for the following compound: COc1ccc(C2C=C(c3ccc(Cl)c(Cl)c3)N=C3SC(C)=CN32)cc1OC (configuration not stated)
Reply text: 56.2

Inquiry: Entry COc1ccc(-c2nnc(COc3ccc(NC(=O)Nc4cccc(C(F)(F)F)c4)cc3F)o2)cc1 needs its growth filled in; supply it.
Reply text: 8.23

Inquiry: # return recorded growth for input Nc1ccccc1NC(=O)CCCCCCC(=O)Nc1ccc2c(c1)/C(=C/c1ccc[nH]1)C(=O)N2
Reply text: 43.9

Inquiry: Note down growth recorded for COc1ccc(C2C=C(c3ccc(Cl)cc3)N=C3SC=CN32)c(Br)c1 (configuration not stated)
Reply text: 71.2

Inquiry: For the compound Cc1ccccc1C1=N[C@@H](Cc2ccccc2)C(=O)c2c(nc3ccccn23)N1 , report growth.
Reply text: 91.7

Inquiry: Retrieve growth measured for O=S(=O)(NC1c2ccccc2Oc2ccccc21)c1cc(Cl)ccc1Cl and print it.
Reply text: 96.1

Inquiry: Give reported growth value for COc1cc(-c2n/c(=C\c3c(O)[nH]c4ccccc34)cc3c2=Nc2ccccc2-3)cc(OC)c1OC
Reply text: 25.8

Inquiry: Give the measured growth for COc1ccc(/C=C2\CCC3C(CCCC34OCCO4)C2=O)cc1 (configuration not stated)
Reply text: 80.8

Inquiry: Assign growth to the following record: CCCCCCCCCCCC(c1ccccc1)N(C)C (configuration not stated)
Reply text: 92.7

Inquiry: Hello, please tell me recorded growth for this one: O=C(N/N=C/c1ccccc1O)c1ccccc1
Reply text: 5.3

Inquiry: Return growth for the following compound: COC(=O)CCCCCCCCC(C)c1ccc(C(C)=O)cc1 (configuration not stated)
Reply text: 98.2

Inquiry: // Input: Cc1ccc(-n2c(-c3cc4c([nH]c5ccccc54)c(-c4cccc(O)c4)n3)n[nH]c2=S)cc1 . Output its growth only.
Reply text: -77

Inquiry: Report growth, nothing else, for this compound: CC(C)c1ncc(CO)n1Cc1c(Cl)cccc1Cl
Reply text: 104

Inquiry: Return growth (reported value) for this compound: COC(=O)[C@]12CC[C@@H](C)[C@H](C)[C@@H]1C1=CC[C@@H]3[C@@]4(C)C[C@@H](O)[C@H](O)[C@@](C)(CO)[C@@H]4[C@H](O)C[C@@]3(C)[C@]1(C)CC2
Reply text: -93

Inquiry: Return value of growth for input Fc1ccc(-c2cc(C(Cl)Cl)no2)cc1 , no commentary.
Reply text: 101

Inquiry: Identify measured growth associated with C[C@@H]1N=C(c2ccc(Br)cc2)Nc2nc3ccccn3c2C1=O
Reply text: 52.4

Inquiry: Assign growth to the following record: O=c1oc2c3ccc4cnccc4c3[nH]c2c2ccccc12
Reply text: 13.5

Inquiry: Return reported growth. Input compound: Cc1ccc([P+](Cc2ccc([N+](=O)[O-])cc2)(c2ccc(C)cc2)c2ccc(C)cc2)cc1
Reply text: 32.4

Inquiry: Item OC(CNC1CCCC1)Cn1c2ccccc2c2ccccc21 (configuration not stated) : provide growth
Reply text: -75.9

Inquiry: Give the value of growth reported for the following: COc1c(C)c(C)c(OC)c2c1[nH]c(=O)c1c3cccnc3cn21
Reply text: 107

Inquiry: Return growth for the following compound: CC1(CO)CCCC12OCCO2 (configuration not stated)
Reply text: 104

Inquiry: Answer with the recorded growth of CC(Oc1ccc(Cl)cc1)c1ccccc1 (configuration not stated) only.
Reply text: 97.5

Inquiry: Give recorded growth. COc1cccc(-c2nnc(COc3ccc(-c4nc5ccccc5[nH]4)cc3OC)o2)c1
Reply text: 104

Inquiry: Complete the entry with growth for COC1OC2COC(c3ccccc3)OC2C(=O)C1NC(=O)c1ccccc1 (configuration not stated)
Reply text: 90.1

Inquiry: Input COc1cc(CSc2nc3ccc(C)cc3c(=O)n2Cc2ccccc2)cc(OC)c1OC , output reported growth.
Reply text: 39.8

Inquiry: Read off the recorded growth for C[N+]1(CC2CO2)CCCCCC1 (configuration not stated)
Reply text: 105

Inquiry: Name the recorded growth of the item O=[N+]([O-])c1ccc(Br)o1 in your answer.
Reply text: 93.9

Inquiry: Provide only the value of recorded growth for C[N+]1=C(/C=C/c2ccc(I)cc2)C(C)(C)c2ccccc21
Reply text: 38

Inquiry: # return recorded growth for entry S=C(Cc1ccc(-c2ccccc2)cc1)N1CCOCC1
Reply text: 92

Inquiry: Let me know recorded growth for COc1ccc(/C=C2\SC(=S)N(CCCN3CCOCC3)C2=O)c(OC)c1 , thanks.
Reply text: 97.8

Inquiry: Please give measured growth of the following entry: COc1cc(C2C=C(c3ccc(Cl)c(Cl)c3)N=C3SC(C)=CN32)cc(OC)c1OC (configuration not stated)
Reply text: 41.3
